- experimental target: ULK1 LIR peptide (biotinylated, BLI) (human)
- measurement description: BLI; biotinylated LIR peptide (50 μg/ml) immobilised on streptavidin biosensor, ATG8 in solution; Octet Red 96; 25 mM Tris pH 7.5, 150 mM NaCl, 0.5 mM TCEP, 0.1% Tween-20, 1 mg/ml BSA; 25 °C; Kd from response against concentration
measurement type: Kd (µM)

Lookup: Look at this substance and give its reported Kd. GABARAP-L1 (recombinant, BLI) (from UniProt Q9H0R8 1-117) (natural protein)
Found: 0.048

Lookup: Look at this substance and give its reported Kd. GABARAP (recombinant, BLI) (from UniProt O95166 1-117) (natural protein)
Found: 0.05

Values from paper PMC6499816
